Attribution: paper PMC6895180

System: T. b. rhodesiense STIB-900
Assay: microbe, parasite or virus in culture
Assay type: cell-based, Trypanosoma brucei rhodesiense
Settings: source data; read-out: T. brucei rhodesiense EC50, single measurements
MEASURED_ENDPOINT: EC50

Some molecules with known EC50 results, for comparison:
1) Nc1ncnc2c1ccn2[C@@H]1O[C@H](CO)C[C@H]1O ... 0.557 nM
2) Nc1ncnc2c1c(Br)cn2[C@H]1C[C@H](O)[C@@H](CO)O1 ... 126 nM
3) Nc1ncnc2c1c(Br)cn2[C@@H]1O[C@H](CO)[C@@H](O)[C@H]1O ... 136 nM

Consider Nc1ncnc2c1c(Br)cn2[C@@H]1O[C@H](CO)C[C@H]1O . Its measured EC50 is 0.5 nM

###

Test: Cytotoxicity on MRC-5 fibroblasts (resazurin)
Type: cell-based, human
Settings: human, source data; read-out: MRC-5 EC50, Average
MEASURED_ENDPOINT: EC50 at 3 day (nM)
Give bare numbers, in nM.

# EC50 at 3 day (compound: Nc1ncnc2c1ccn2[C@@H]1O[C@H](CO)[C@@H](O)[C@H]1O [Compound 6, Tubercidin, reference compound] ) is 2230

###

For each entry below, report its EC50 value.
System: T. brucei Squib 427
Test: microbe, parasite or virus in culture
Format: cell-based, Trypanosoma brucei brucei
Conditions: Trypanosoma brucei, source data; read-out: T. brucei brucei EC50, Average

Below, each entry is followed by its recorded EC50 result.
1. Nc1ncnc2c1c(Br)cn2[C@@H]1O[C@H](CO)C[C@H]1O ... 1.29 nM
2. Nc1ncnc2c1ccn2[C@@H]1O[C@H](CO)[C@@H](O)[C@H]1O [Compound 6, Tubercidin, reference compound] ... 480 nM
3. Nc1ncnc2c1c(Br)cn2[C@H]1C[C@H](O)[C@@H](CO)O1 ... 460 nM
4. Nc1ncnc2c1ccn2[C@H]1C[C@H](O)[C@@H](CO)O1 ... 48500 nM

Turning to the following compound.
Noted for Nc1ncnc2c1ccn2[C@@H]1O[C@H](CO)C[C@H]1O : its EC50 reads 47.7 nM

###

Tested on: T. brucei BSF s427 wildtype cells
Test: Growth assays of T. brucei (trypanocidal/trypanostatic effect)
Type: cell-based, Trypanosoma brucei
Conditions: 5xEC50, 12 h, experiment 1
MEASURED_ENDPOINT: AVG of cells/mL (cells/mL)
Give bare numbers, in cells/mL.

Some entries whose results are on file:
1) Nc1ncnc2c1ccn2[C@@H]1O[C@H](CO)C[C@H]1O ... 127500
2) Nc1ncnc2c1c(Br)cn2[C@@H]1O[C@H](CO)C[C@H]1O ... 98750
3) Nc1ncnc2c1c(Br)cn2[C@@H]1O[C@H](CO)[C@@H](O)[C@H]1O ... 176250

Note to self: AVG of cells/mL recorded for Nc1ncnc2c1ncn2[C@@H]1O[C@H](CO)C[C@H]1O [Compound 3, cordycepin, reference compound] was 156250

###

Assay: Cytotoxicity on MRC-5 fibroblasts (resazurin)
Assay type: cell-based, human
Conditions: human, cytotoxicity in human MRC-5 fibroblasts; mean and SEM; read-out: MRC-5 EC50
MEASURED_ENDPOINT: EC50 at 3 day (µM)
One number for each entry, in µM.

Quick note, EC50 at 3 day for Nc1ncnc2c1ccn2[C@@H]1O[C@H](CO)[C@@H](O)[C@H]1O [Compound 6, Tubercidin, reference compound] landed at 2.2

###

Target: Lister 427WT T. b. brucei
Test: Adenosine deaminase susceptibility (drug sensitivity with/without 2 µM deoxycoformycin)
Assay type: cell-based, Trypanosoma brucei brucei
Conditions: DCF -; average of replicates; read-out: EC50 AVG
MEASURED_ENDPOINT: pEC50
Numbers only, as −log10 of the molar value.

Summary for this compound, Nc1ncnc2c1c(Br)cn2[C@@H]1O[C@H](CO)C[C@H]1O [FH7429-up (10)] : pEC50 is 8.69

###

Biological target: P2 transporter (TbAT1) (Trypanosoma brucei brucei)
Sequence (Q9Y0I0 entry or part of it): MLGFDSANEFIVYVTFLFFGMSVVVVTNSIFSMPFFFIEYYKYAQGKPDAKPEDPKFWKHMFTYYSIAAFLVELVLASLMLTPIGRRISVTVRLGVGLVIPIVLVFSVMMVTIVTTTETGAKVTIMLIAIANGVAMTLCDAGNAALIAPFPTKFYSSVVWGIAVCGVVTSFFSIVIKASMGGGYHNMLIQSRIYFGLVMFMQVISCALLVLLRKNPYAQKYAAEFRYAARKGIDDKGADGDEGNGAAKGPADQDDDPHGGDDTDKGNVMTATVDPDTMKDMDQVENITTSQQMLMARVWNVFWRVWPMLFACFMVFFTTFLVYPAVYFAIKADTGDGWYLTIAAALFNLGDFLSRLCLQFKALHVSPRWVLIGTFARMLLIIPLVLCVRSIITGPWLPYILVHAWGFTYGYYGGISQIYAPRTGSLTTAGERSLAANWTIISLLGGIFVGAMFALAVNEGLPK
Assay: cell-based
Conditions: P2 transporter Ki, inhibition of [3H]adenosine uptake; mean ± SEM, n = 3
I'd appreciate it if you could supply pKi values for the items below.
Answers are plain numbers, as −log10 of the molar value.

1) Nc1ncnc2c1ccn2[C@@H]1O[C@H](CO)C[C@H]1O ... 6.83

Next up:
# pKi (molecule: Nc1ncnc2c1c(Br)cn2[C@@H]1O[C@H](CO)C[C@H]1O ) is 6.30

###

Target: Lister 427WT T. b. brucei
Assay: Adenosine deaminase susceptibility (drug sensitivity with/without 2 µM deoxycoformycin)
Assay type: cell-based, Trypanosoma brucei brucei
Conditions: DCF +; average of replicates; read-out: EC50 AVG
MEASURED_ENDPOINT: EC50 (nM)
Give bare numbers, in nM.

Reported EC50 for Nc1ncnc2c1c(Br)cn2[C@@H]1O[C@H](CO)C[C@H]1O [FH7429-up (10)] was 1.9
